PROCEDURE TEXT: in vitro
RUN CONDITIONS: human, Viability (CelTiter Glow)
PROPERTY NAME: viability at 52 h, 3 μM

Observe how each entry below is paired with its result.
compound=O=C(NCc1ccccn1)C(=O)Nc1ccc([N+](=O)[O-])cc1 property_name="viability at 52 h, 3 μM" value_measured=107%
compound=CCCCNC(=O)c1cc2nc(-c3ccc(OCC)cc3)cc(C)n2n1 property_name="viability at 52 h, 3 μM" value_measured=113%
compound=Cc1ccc(CN2CCN(S(C)(=O)=O)CC2)cc1 property_name="viability at 52 h, 3 μM" value_measured=109%
compound=COc1cccc(NC(=O)c2ccc(C)c([N+](=O)[O-])c2)c1 property_name="viability at 52 h, 3 μM" value_measured=86.8%

Prompt line: What measured viability at 52 h, 3 μM goes with NC(=O)NC(c1ccccc1)c1ccccc1Br (stereo not drawn) [Compound 5571356, N-[(2-bromophenyl)(phenyl)methyl]urea] ?
Response line: 106%

Prompt line: Check CN(C)c1cccc(C(=O)NCc2ccc(S(N)(=O)=O)cc2)c1 too.
Response line: 105%

Prompt line: Then what about the compound CCCC(=O)NC(c1cccc([N+](=O)[O-])c1)c1ccc2cccnc2c1O (stereo not drawn) ?
Response line: 63.3%

Prompt line: Now consider Cc1c(NS(=O)(=O)c2cc(Cl)ccc2Cl)cccc1[N+](=O)[O-] and answer again.
Response line: 67.8%

Prompt line: Again, but for Cc1nc2ccccn2c1C(=O)NC(C)c1ccccc1 (stereo not drawn)
Response line: 103%

These entries and their values trace back to patent US9949980B2.
